- protocolText: Antiproliferative activity against human ACHN cells assessed as inhibition of cell viability after 48 hrs by MTT reduction assay
- Assay type: functional, cell-based
pIC50: −log10 of the molar value.

{"molecule": "O=c1[nH]cc(F)c(=O)[nH]1 [FLUOROURACIL]", "relationSign": "=", "pIC50": 5.56}
{"molecule": "CC(=O)O[C@H]1C[C@H]([C@H](C)[C@H]2CC(C)=C(C)C(=O)O2)[C@@]2(C)CC[C@H]3[C@@H](C[C@@H](O)[C@@]4(O)CC=CC(=O)[C@]34C)[C@H]12", "relationSign": "<", "pIC50": 5.00}
{"molecule": "CC(=O)O[C@H]1C=C([C@H](C)[C@H]2CC(C)=C(C)C(=O)O2)[C@@]2(C)CC[C@H]3[C@@H](C[C@@H](O)[C@@]4(O)C[C@@H](O)CC(=O)[C@]34C)[C@@]12O", "relationSign": "<", "pIC50": 5.00}
{"molecule": "CC(=O)O[C@H]1[C@@H]2O[C@]2([C@H](C)[C@H]2CC(C)=C(C)C(=O)O2)[C@@]2(C)CC[C@H]3[C@@H](C[C@H]4O[C@]45CC=CC(=O)[C@]35C)[C@@]12O", "relationSign": "<", "pIC50": 5.00}
{"molecule": "CC(=O)O[C@H]1C=C([C@H](C)[C@H]2CC(C)=C(C)C(=O)O2)[C@@]2(C)CC[C@H]3[C@@H](C[C@H]4O[C@]45CC=CC(=O)[C@]35C)[C@]12O", "relationSign": "=", "pIC50": 5.97}
{"molecule": "CC1=C(C)C(=O)O[C@@H]([C@@H](C)C2=C[C@@H]3OC(C)(C)O[C@@]34[C@@H]3C[C@@H](O)[C@@]5(O)CC=CC(=O)[C@]5(C)[C@H]3CC[C@]24C)C1", "relationSign": "<", "pIC50": 5.00}
{"molecule": "CO[C@H]1CC(=O)[C@]2(C)[C@H]3CC[C@]4(C)C([C@H](C)[C@H]5CC(C)=C(C)C(=O)O5)=C[C@H](OC(C)=O)[C@@]4(O)[C@@H]3C[C@H]3O[C@]32C1", "relationSign": "=", "pIC50": 5.12}
{"molecule": "CC(=O)O[C@H]1C=C([C@H](C)[C@H]2CC(C)=C(C)C(=O)O2)[C@@]2(C)CC[C@H]3[C@@H](C[C@@H](O)[C@@]4(Cl)CC=CC(=O)[C@]34C)[C@]12O", "relationSign": "=", "pIC50": 5.32}
{"molecule": "CC(=O)O[C@H]1[C@@H]2O[C@]2([C@H](C)[C@H]2CC(C)=C(C)C(=O)O2)[C@@]2(C)CC[C@H]3[C@@H](C[C@@H](O)[C@@]4(Cl)CC=CC(=O)[C@]34C)[C@@]12O", "relationSign": "=", "pIC50": 6.11}
{"molecule": "CC1=C(C)C(=O)O[C@@H]([C@@H](C)C2=C[C@@H]3O[C@@H](C)O[C@@]34[C@@H]3C[C@@H](O)[C@@]5(O)CC=CC(=O)[C@]5(C)[C@H]3CC[C@]24C)C1", "relationSign": "<", "pIC50": 5.00}

###

- protocolText: Antiinflammatory activity in mouse RAW264.7 cells assessed as inhibition of LPS-induced nitric oxide production after 24 hrs by Griess assay
- Assay type: functional, cell-based
- conditions: RAW264.7, 24 h
With a cut-off of 20 µM, any IC50 strictly below it is called criterion met; any IC50 meeting it or above is called criterion not met.

{"chemSmiles": "CC1=C(C)C(=O)O[C@@H]([C@@H](C)[C@]23O[C@H]2[C@H](O)[C@]2(O)[C@@H]4C[C@@H](O)[C@@]5(O)CC=CC(=O)[C@]5(C)[C@H]4CC[C@@]23C)C1", "classAssignment": "criterion not met"}
{"chemSmiles": "CC(=O)O[C@H]1C=C([C@H](C)[C@H]2CC(C)=C(C)C(=O)O2)[C@@]2(C)CC[C@H]3[C@@H](C[C@@H](O)[C@@]4(O)CC=CC(=O)[C@]34C)[C@]12O", "classAssignment": "criterion not met"}
{"chemSmiles": "CO[C@H]1C=C([C@H](C)[C@H]2CC(C)=C(C)C(=O)O2)[C@@]2(C)CC[C@H]3[C@@H](C[C@@H](O)[C@@]4(O)CC=CC(=O)[C@]34C)[C@@]12O", "classAssignment": "criterion met"}
{"chemSmiles": "CC(=O)O[C@H]1C[C@H]([C@H](C)[C@H]2CC(C)=C(C)C(=O)O2)[C@@]2(C)CC[C@H]3[C@@H](C[C@@H](O)[C@@]4(O)CC=CC(=O)[C@]34C)[C@H]12", "classAssignment": "criterion met"}
{"chemSmiles": "CC1=C(CO)C[C@H]([C@]2(C)OC(=O)[C@]34[C@H](O)C[C@H]5[C@@H](CC=C6CC=CC(=O)[C@@]65C)[C@]3(O)[C@H](O)C[C@H]24)OC1=O", "classAssignment": "criterion met"}
{"chemSmiles": "CC1=C(C)C(=O)O[C@@H]([C@@H](C)C2=C[C@@H]3OC(C)(C)O[C@@]34[C@@H]3C[C@@H](O)[C@@]5(O)CC=CC(=O)[C@]5(C)[C@H]3CC[C@]24C)C1", "classAssignment": "criterion not met"}
{"chemSmiles": "CC1=C(C)C(=O)O[C@@H]([C@@H](C)C2=C[C@@H]3O[C@@H](C)O[C@@]34[C@@H]3C[C@@H](O)[C@@]5(O)CC=CC(=O)[C@]5(C)[C@H]3CC[C@]24C)C1", "classAssignment": "criterion met"}
{"chemSmiles": "CC1=C(C)C(=O)O[C@@H]([C@](C)(O)[C@H]2C[C@H](O)[C@H]3[C@@H]4C[C@@H](O)[C@@]5(O)CC=CC(=O)[C@]5(C)[C@H]4CC[C@@]32C)C1", "classAssignment": "criterion not met"}

###

IC50 reference
- protocolText: Antiproliferative activity against human ACHN cells assessed as inhibition of cell viability after 48 hrs by MTT reduction assay
- Format: functional, cell-based

{"chemSmiles": "CC(=O)O[C@H]1C[C@H]([C@H](C)[C@H]2CC(C)=C(C)C(=O)O2)[C@@]2(C)CC[C@H]3[C@@H](C[C@H]4O[C@]45CC=CC(=O)[C@]35C)[C@@]12O", "relationSign": "=", "IC50 / nM": 730}
{"chemSmiles": "CC1=C(C)C(=O)O[C@@H]([C@@H](C)C2=C[C@H](O)[C@]3(O)[C@@H]4C[C@@H](O)[C@@]5(O)CC=CC(=O)[C@]5(C)[C@H]4CC[C@]23C)C1", "relationSign": ">", "IC50 / nM": 10000}
{"chemSmiles": "CC(=O)O[C@H]1C[C@@](O)([C@H](C)[C@H]2CC(C)=C(C)C(=O)O2)[C@@]2(C)CC[C@H]3[C@@H](C[C@H]4O[C@]45CC=CC(=O)[C@]35C)[C@@]12O", "relationSign": "=", "IC50 / nM": 400}
{"chemSmiles": "CC(=O)O[C@H]1C[C@@](O)([C@H](C)[C@H]2CC(C)=C(C)C(=O)O2)[C@@]2(C)CC[C@H]3[C@@H](C[C@@H](O)[C@@]4(O)CC=CC(=O)[C@]34C)[C@@]12O", "relationSign": ">", "IC50 / nM": 10000}
{"chemSmiles": "CO[C@]12CC=CC(=O)[C@]1(C)[C@H]1CC[C@@]3(C)[C@](O)([C@@H](OC(C)=O)C[C@@]3(O)[C@H](C)[C@H]3CC(C)=C(C)C(=O)O3)[C@@H]1C[C@H]2O", "relationSign": ">", "IC50 / nM": 10000}

###

- protocolText: Antiinflammatory activity in mouse RAW264.7 cells assessed as inhibition of LPS-induced nitric oxide production after 24 hrs by Griess assay
- Assay type: functional, cell-based
- conditions: RAW264.7, 24 h
pIC50: −log10 of the molar value.
pIC50 reference

{"chemSmiles": "CC(=O)O[C@H]1C[C@@](O)([C@H](C)[C@H]2CC(C)=C(C)C(=O)O2)[C@@]2(C)CC[C@H]3[C@@H](C[C@H]4O[C@]45CC=CC(=O)[C@]35C)[C@@]12O", "relationSign": "=", "pIC50": 5.47}
{"chemSmiles": "CC(=O)O[C@H]1C=C([C@H](C)[C@H]2CC(C)=C(C)C(=O)O2)[C@@]2(C)CC[C@H]3[C@@H](C[C@@H](O)[C@@]4(O)C[C@@H](O)CC(=O)[C@]34C)[C@@]12O", "relationSign": "<", "pIC50": 4.00}
{"chemSmiles": "CO[C@]12CC=CC(=O)[C@]1(C)[C@H]1CC[C@@]3(C)[C@@](O)([C@@H]1C[C@H]2O)[C@@H](OC(C)=O)[C@@H]1O[C@@]13[C@H](C)[C@H]1CC(C)=C(C)C(=O)O1", "relationSign": "=", "pIC50": 5.20}
{"chemSmiles": "CO[C@]12CC=CC(=O)[C@]1(C)[C@H]1CC[C@@]3(C)[C@](O)([C@@H](OC(C)=O)C[C@@]3(O)[C@H](C)[C@H]3CC(C)=C(C)C(=O)O3)[C@@H]1C[C@H]2O", "relationSign": "=", "pIC50": 5.45}
{"chemSmiles": "CC(=O)O[C@H]1C=C([C@H](C)[C@H]2CC(C)=C(C)C(=O)O2)[C@@]2(C)CC[C@H]3[C@@H](C[C@@H](O)[C@@]4(Cl)CC=CC(=O)[C@]34C)[C@]12O", "relationSign": "=", "pIC50": 5.47}
{"chemSmiles": "CC(=O)O[C@H]1C[C@H]([C@H](C)[C@H]2CC(C)=C(C)C(=O)O2)[C@@]2(C)CC[C@H]3[C@@H](C[C@H]4O[C@]45CC=CC(=O)[C@]35C)[C@@]12O", "relationSign": "=", "pIC50": 5.87}
{"chemSmiles": "CO[C@@H]1C=C([C@H](C)[C@H]2CC(C)=C(C)C(=O)O2)[C@@]2(C)CC[C@H]3[C@@H](C[C@@H](O)[C@@]4(O)CC=CC(=O)[C@]34C)[C@@]12O", "relationSign": "=", "pIC50": 4.73}
{"chemSmiles": "CO[C@H]1CC(=O)[C@]2(C)[C@H]3CC[C@]4(C)C([C@H](C)[C@H]5CC(C)=C(C)C(=O)O5)=C[C@H](OC(C)=O)[C@@]4(O)[C@@H]3C[C@H]3O[C@]32C1", "relationSign": "=", "pIC50": 5.25}
{"chemSmiles": "CC1=C(C)C(=O)O[C@@H]([C@@H](C)C2=C[C@@H](O)[C@]3(O)[C@@H]4C[C@@H](O)[C@@]5(O)CC=CC(=O)[C@]5(C)[C@H]4CC[C@]23C)C1", "relationSign": "=", "pIC50": 4.42}
{"chemSmiles": "CC1=C(C)C(=O)O[C@@H]([C@@H](C)C2=C[C@H](O)[C@]3(O)[C@@H]4C[C@@H](O)[C@@]5(O)CC=CC(=O)[C@]5(C)[C@H]4CC[C@]23C)C1", "relationSign": "=", "pIC50": 4.44}
{"chemSmiles": "CO[C@]12CC=CC(=O)[C@]1(C)[C@H]1CC[C@]3(C)C([C@H](C)[C@H]4CC(C)=C(C)C(=O)O4)=C[C@H](OC(C)=O)[C@]3(O)[C@@H]1C[C@H]2O", "relationSign": "=", "pIC50": 4.35}
{"chemSmiles": "CC(=O)O[C@H]1C[C@@](O)([C@H](C)[C@H]2CC(C)=C(C)C(=O)O2)[C@@]2(C)CC[C@H]3[C@@H](C[C@@H](O)[C@@]4(O)CC=CC(=O)[C@]34C)[C@@]12O", "relationSign": "<", "pIC50": 4.00}
{"chemSmiles": "CC(=O)O[C@H]1[C@@H]2O[C@]2([C@H](C)[C@H]2CC(C)=C(C)C(=O)O2)[C@@]2(C)CC[C@H]3[C@@H](C[C@@H](O)[C@@]4(O)CC=CC(=O)[C@]34C)[C@@]12O", "relationSign": "=", "pIC50": 4.23}
{"chemSmiles": "CC(=O)O[C@H]1[C@@H]2O[C@]2([C@H](C)[C@H]2CC(C)=C(C)C(=O)O2)[C@@]2(C)CC[C@H]3[C@@H](C[C@H]4O[C@]45CC=CC(=O)[C@]35C)[C@@]12O", "relationSign": "=", "pIC50": 5.60}
{"chemSmiles": "CC(=O)O[C@H]1[C@@H]2O[C@]2([C@H](C)[C@H]2CC(C)=C(C)C(=O)O2)[C@@]2(C)CC[C@H]3[C@@H](C[C@@H](O)[C@@]4(Cl)CC=CC(=O)[C@]34C)[C@@]12O", "relationSign": "=", "pIC50": 5.85}
{"chemSmiles": "CC(=O)O[C@H]1C[C@H]([C@H](C)[C@H]2CC(C)=C(C)C(=O)O2)[C@@]2(C)CC[C@H]3[C@@H](C[C@@H](O)[C@@]4(O)CC=CC(=O)[C@]34C)[C@@]12O", "relationSign": "=", "pIC50": 4.36}
{"chemSmiles": "CC1=C(C)C(=O)O[C@@H]([C@]2(C)OC(=O)[C@]34CC[C@H]5[C@@H](CC=C6CC=CC(=O)[C@@]65C)[C@@](O)(O3)[C@@H](O)C[C@H]24)C1", "relationSign": "=", "pIC50": 4.59}
{"chemSmiles": "CO[C@@H]1CC(=O)[C@]2(C)[C@H]3CC[C@@]4(C)[C@@](O)([C@@H]3C[C@H]3O[C@]32C1)[C@@H](OC(C)=O)[C@@H]1O[C@@]14[C@H](C)[C@H]1CC(C)=C(C)C(=O)O1", "relationSign": "=", "pIC50": 5.45}
{"chemSmiles": "CC(=O)O[C@H]1C=C([C@H](C)[C@H]2CC(C)=C(C)C(=O)O2)[C@@]2(C)CC[C@H]3[C@@H](C[C@H]4O[C@]45CC=CC(=O)[C@]35C)[C@]12O", "relationSign": "=", "pIC50": 5.52}
{"chemSmiles": "CC(=O)O[C@H]1C=C([C@H](C)[C@H]2CC(C)=C(C)C(=O)O2)[C@@]2(C)CC[C@H]3[C@@H](C[C@H](O)[C@]4(O)CC=CC(=O)[C@]34C)[C@@]12O", "relationSign": "=", "pIC50": 4.94}
